# Tested on: TK-10 renal
# EXPERIMENT SUMMARY: NCI-60 one-dose screen, 48 h
# RUN CONDITIONS: 10 µM unless noted
# Protocol: Growth inhibition of the TK-10 human tumor cell line is measured as a screen for anti-cancer activity. Cells are grown in 96 well plates and exposed to the test compound for 48 hours. Compounds are tested at a single concentration, which is 10^-5 M for most compounds. The reported endpoint is percent growth (GI% or GIPRCNT), where numbers from 0 - 100% represent growth inhibition, and numbers from -100% - 0 represent cell death. For example, a value of 40 represents 60% growth inhibition. […]
This is part of a sample that, as a whole, favours compounds with a hit. Of some 83,000 tested, about 20% had one in any assay. Active and inactive are the calls of the source. How the source made its calls: active means growth percent below 10; inactive means the rest.
Result category, one only: t = active, f = inactive

[
  {
    "MOLECULE": "N#CCCn1cnc2c(N)ncnc21",
    "LABEL": "f"
  }
]

--- query ---
Q. What is the recorded call for this molecule in the test? `O=c1nc(-c2ccccc2)c2cc(-c3ccc(N4CCOCC4)cc3)ccc2[nH]1`
A. f

====

# System: MCF7 breast
# EXPERIMENT SUMMARY: NCI-60 one-dose screen, 48 h
# RUN CONDITIONS: 10 µM unless noted
# Procedure: Growth inhibition of the MCF7 human tumor cell line is measured as a screen for anti-cancer activity. Cells are grown in 96 well plates and exposed to the test compound for 48 hours. Compounds are tested at a single concentration, which is 10^-5 M for most compounds. The reported endpoint is percent growth (GI% or GIPRCNT), where numbers from 0 - 100% represent growth inhibition, and numbers from -100% - 0 represent cell death. For example, a value of 40 represents 60% growth inhibition. […]
This is part of a sample that, as a whole, favours compounds with a hit. Of some 83,000 tested, about 20% had one in any assay. The source made the active and inactive calls. Rule for the calls: active = growth percent below 10; inactive = the rest.
In this exercise, the only acceptable responses are active, inactive

[
  {
    "MOLECULE": "CC1OC(n2c3ccccc3c3c4c(c5c6ccccc6[nH]c5c32)C(=O)N(CCN[C@H]2CCC[C@@H]2N)C4=O)CC(O)C1O (stereo partly drawn)",
    "LABEL": "active"
  },
  {
    "MOLECULE": "COc1ccc(C(=O)OC2C(OC3C(O)COC(O[C@H]4C[C@H]5[C@@H]6CC=C7C[C@@H](O)CC[C@]7(C)[C@H]6CC[C@]5(C)[C@H]4[C@H](C)C(=O)CCC(C)C)C3OC(N)=O)OCC(O)C2O)cc1 (stereo partly drawn)",
    "LABEL": "active"
  },
  {
    "MOLECULE": "CS(=O)(=O)c1ccc(Cl)c([N+](=O)[O-])c1",
    "LABEL": "inactive"
  },
  {
    "MOLECULE": "Cc1ccc([C@H]2c3[nH]c4ccccc4c3C[C@H]3C(=O)N(CCCCCCC(=O)NO)CC(=O)N23)cc1",
    "LABEL": "inactive"
  },
  {
    "MOLECULE": "O=C(NCCN1CCCCC1)n1cc(-c2ccncc2)c(-c2ccc(Cl)c(O)c2)n1",
    "LABEL": "inactive"
  },
  {
    "MOLECULE": "CC(C)CCSc1nc(-c2ccc(F)cc2)c(C#N)c(N2CCCCC2)n1",
    "LABEL": "inactive"
  },
  {
    "MOLECULE": "COc1ccccc1CNCCCN1C(=O)c2ccc3c4c(ccc(c24)C1=O)C(=O)N(CCCCNCCCN)C3=O",
    "LABEL": "active"
  }
]

Consider now this further molecule.
Q. # lookup: test call for COc1ccc(C2NC(=O)c3cc4c(cc3N2)OCO4)cc1 (stereo not drawn)
A. inactive

# credit: PubChem BioAssay (NCI)
